Origin of the recorded values: patent US20190038721A1

Readings of IC50 for the listed binders
experimental-target: T1, human GLP-1 receptor (human, UniProt P43220 24-463)
T1 construct: whole, on cells
experimental-details: competitive binding (SPA), displacement of 125I-GLP-1(7-36)NH2 from membranes with human GLP-1 receptor, high HSA (2.0% w/v)
Starred links: 1 amine or outer side, 2 acyl side, 3 side chain; linkers in the order of their positions; H or OH if unused. Groups on a side chain read outwards from the residue. No end group written: not given here. *: point of attachment. 2‑(bis(3-aminopropyl)amino)acetyl = branch point, each 3-aminopropyl arm carries one of the two bracketed chains; C20 diacid = O=C(O)CCCCCCCCCCCCCCCCCCC(=O)*; γGlu = O=C(O)[C@H](CCC(=O)[*:2])N[*:1]; AEEA = NCCOCCOCC(=O)O
# unit: nM | format: bare number

1) HWEGTFTSDVSSYLEEQAAREFIAWLVRGRK([AEEA-AEEA-2‑(bis(3-aminopropyl)amino)acetyl-AEEA-AEEA-AEEA-AEEA-γGlu-4‑(aminomethyl)cyclohexanecarbonyl-C20 diacid)+(AEEA-AEEA-AEEA-AEEA-γGlu-4‑(aminomethyl)cyclohexanecarbonyl-C20 diacid]) (also called 13) [N{Epsilon-37}-[2-[2-[2-[[2-[2-[2-[[2-[bis[3-[[2-[2-[2-[[2-[2-[2-[[2-[2-[2-[[2-[2-[2-[[(4 …]	71.6
2) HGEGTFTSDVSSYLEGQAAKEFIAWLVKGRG [[Gly8]-GLP-1-(7-37)-peptide]	0.62

Task item: // lookup IC50 for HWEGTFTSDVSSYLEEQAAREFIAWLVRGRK([AEEA-AEEA-2,6‑diaminohexanoyl-AEEA-AEEA-AEEA-AEEA-γGlu-4‑(aminomethyl)cyclohexanecarbonyl-C20 diacid)+(AEEA-AEEA-AEEA-AEEA-γGlu-4‑(aminomethyl)cyclohexanecarbonyl-C20 diacid]) (the claim prints (2S)-2,6-bis; also called 12)
Reply: 51.8
